- target: human p38 kinase alpha (Homo sapiens, UniProt Q16539)
- Construct: The coding region of the human p38 cDNA was obtained by PCR-amplification from RNA isolated from the human monocyte cell line THP.1; GST (N); made in house; host or cells: E. coli DH10B
- Sequence (Q16539 whole entry): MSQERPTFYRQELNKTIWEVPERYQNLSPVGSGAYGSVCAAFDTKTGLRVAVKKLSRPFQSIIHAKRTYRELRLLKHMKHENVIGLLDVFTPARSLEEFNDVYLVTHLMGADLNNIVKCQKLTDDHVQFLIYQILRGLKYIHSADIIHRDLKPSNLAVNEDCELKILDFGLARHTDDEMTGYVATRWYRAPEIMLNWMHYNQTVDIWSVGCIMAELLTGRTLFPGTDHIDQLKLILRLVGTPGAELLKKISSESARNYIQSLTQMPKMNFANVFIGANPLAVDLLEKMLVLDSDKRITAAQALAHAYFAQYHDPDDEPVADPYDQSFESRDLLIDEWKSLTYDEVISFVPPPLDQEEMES
- assayInfo: p38 kinase in vitro assay
- Format: biochemical
- conditions: Table III; n = number of times assayed, n=1 if not reported; read-out: p38 Alpha IC50
pIC50: −log10 of the molar value.
readoutType: pIC50

Check out these entries, answers already filled in.
INSERT INTO results (chemicalstring, measuredresult) VALUES
  ('Cc1cc(OCc2c(F)cccc2F)c(Br)c(=O)n1-c1c(Cl)cccc1Cl', 6.47),
  ('O=c1c(Br)c(OCc2ccc(F)cc2F)ccn1Cc1cccnc1', 6.55),
  ('O=c1c(Br)c(OCc2ccc(F)cc2)ccn1Cc1cccc(Cl)c1', 5.94);

(1) Cc1cc(OCc2ccc(F)cc2F)c(Br)c(=O)n1Cc1cccnc1
(2) Cc1cccc(COc2ccn(Cc3cccc(F)c3)c(=O)c2Br)c1
Exercise: Between 1 and 2 , which one shows the larger pIC50 value? Bench note: the answer is the label of the chosen record.
Solution: 1

(1) O=c1c(Br)c(OCc2ccc(F)cc2)ccn1CC1CC1
(2) O=c1c(Br)c(OCc2ccccc2CO)ccn1Cc1cccc(F)c1
Exercise: Please state the entry with greater pIC50 among 1 and 2 . Answer by stating the label of the chosen item.
Solution: 2

###

- target: human p38 kinase alpha (Homo sapiens, UniProt Q16539)
- Construct: The coding region of the human p38 cDNA was obtained by PCR-amplification from RNA isolated from the human monocyte cell line THP.1; GST (N); made in house; host or cells: E. coli DH10B
- assayInfo: p38 kinase in vitro assay
- Type: biochemical
- conditions: Table III; n = number of times assayed, n=1 if not reported; read-out: p38 Alpha IC50
pIC50: −log10 of the molar value.
readoutType: pIC50

INSERT INTO assay_data (molecule, readouttype, measuredresult) VALUES
  ('O=c1c(Br)c(NCc2ccccc2)ccn1Cc1cccc(F)c1 [HHHHH]', 'pIC50', 5.93);

(1) Cc1cc(CCc2ccccc2)c(Br)c(=O)n1Cc1cccc(F)c1 [LLLLL]
(2) Cc1cccc(C)c1-n1c(C)cc(OCc2c(F)cccc2F)c(Br)c1=O [QQQQ]
Exercise: Thinking about recorded pIC50 values, which is higher, 1 or 2 ? Identify your pick by its label.
Solution: 2

###

- target: human p38 kinase alpha (Homo sapiens, UniProt Q16539)
- Construct: The coding region of the human p38 cDNA was obtained by PCR-amplification from RNA isolated from the human monocyte cell line THP.1; GST (N); made in house; host or cells: E. coli DH10B
- assayInfo: p38 kinase in vitro assay
- Assay type: biochemical
- conditions: Table III; n = number of times assayed, n=1 if not reported; read-out: p38 Alpha IC50
readoutType: IC50 (nM)

As a guide, the following entries are already answered.
INSERT INTO assay_data (chemicalstring, readouttype, measuredresult) VALUES
  ('NCc1cccc(Cn2ccc(OCc3ccc(F)cc3)c(Br)c2=O)c1', 'IC50', 175),
  ('Cc1cc(OCc2ccc(F)cc2F)c(Br)c(=O)n1Cc1ccncc1', 'IC50', 183);

(P) O=c1c(Br)c(OCc2cccc(Cl)c2)ccn1Cc1cccc(F)c1
(Q) Cc1ccccc1COc1ccn(Cc2cccc(F)c2)c(=O)c1Br
Exercise: Could you kindly indicate whether P or Q has the higher IC50 value? Please respond with the label that marks your chosen entry.
Solution: Q

###

melting point for assorted compounds

Solved entries:
INSERT INTO measurements (compound, measuredresult) VALUES
  ('O=c1c(Br)c(OCc2ccccc2)ccn1CCc1cccs1 [Example 30]', '128 to 129.5 °C'),
  ('O=C(O)c1ccc(Cn2ccc(OCc3ccccc3)c(Br)c2=O)cc1 [Example 15]', '250.8 to 255.7 °C'),
  ('NC(=NO)c1ccc(Cn2ccc(OCc3ccccc3)c(Br)c2=O)cc1 [Example 24]', '210.2 to 212.2 °C');

Exercise: Tell me melting point reported for Cc1ccc(COc2ccn(Cc3ccccc3)c(=O)c2Br)cc1 [Example 44]
Solution: 149 to 149.7 °C

Exercise: Identify the reported melting point for the following entry. O=c1c(Br)c(OCc2ccccc2C(F)(F)F)ccn1Cc1ccccc1 [Example 47]
Solution: 133.2 to 133.5 °C

Exercise: Name the recorded melting point of the compound listed here: O=c1c(Br)c(OCc2ccccc2)ccn1CCc1ccsc1 [Example 29]
Solution: 134 to 134.3 °C

Exercise: For the compound CCn1ccc(OCc2ccccc2)c(Br)c1=O [Example 20] , give its measured melting point value.
Solution: 61.3 to 64.8 °C

###

- target: human p38 kinase alpha (Homo sapiens, UniProt Q16539)
- Construct: The coding region of the human p38 cDNA was obtained by PCR-amplification from RNA isolated from the human monocyte cell line THP.1; GST (N); made in house; host or cells: E. coli DH10B
- assayInfo: p38 kinase in vitro assay
- Type: biochemical
- conditions: Table I; average of n trials, n=1 if not reported; read-out: p38 Alpha IC50
readoutType: IC50 (nM)

Look over these answered cases.
INSERT INTO assay_data (chemicalstring, unitabbrev, measuredresult) VALUES
  ('O=c1c(Br)c(OCc2ccccc2)ccn1Cc1ccc(Cl)cc1', 'nM', 398),
  ('O=c1c(Br)c(OCc2ccc(F)cc2)ccn1Cc1ccc(F)cc1', 'nM', 403),
  ('O=c1c(Br)c(OCc2ccccc2)ccn1Cc1ccc(Br)cc1', 'nM', 581);

(a) O=c1c(Br)c(OCc2ccc(F)cc2)ccn1Cc1ccncc1
(b) Cc1cc(OCc2ccc(F)cc2F)c(Br)c(=O)n1Cc1cccnc1
Exercise: // select label with min value of measured IC50 from [ a , b ] Answer by quoting the chosen item's label.
Solution: b

(a) O=c1c(Br)c(OCc2ccccc2)ccn1Cc1cccc(F)c1
(b) N/C(=N/O)c1ccc(Cn2ccc(OCc3ccccc3)c(Br)c2=O)cc1
Exercise: Would you kindly point out which of a and b has the smaller IC50 figure? Select an item and report its label.
Solution: b
(b: 489 nM, a: 700 nM)

(I) N#Cc1ccc(Cn2ccc(OCc3ccc(F)cc3)c(Br)c2=O)cc1
(II) Cc1cccc(COc2ccn(Cc3cccc(F)c3)c(=O)c2Br)c1
Exercise: Hello, I am sorting some records. Could you say if I or II has the smaller IC50 value? Please respond with the label that marks your chosen entry.
Solution: II
(II: 260 nM, I: 785 nM)

(A) N#Cc1ccc(Cn2ccc(OCc3ccccc3)c(Br)c2=O)cc1
(B) O=c1c(Br)c(OCc2ccc(F)cc2F)ccn1Cc1cccc(F)c1
Exercise: Between item A and item B , which reported IC50 is smaller? Respond using the label that marks the chosen record.
Solution: B

###

- target: human p38 kinase alpha (Homo sapiens, UniProt Q16539)
- Construct: The coding region of the human p38 cDNA was obtained by PCR-amplification from RNA isolated from the human monocyte cell line THP.1; GST (N); made in house; host or cells: E. coli DH10B
- assayInfo: p38 kinase in vitro assay
- Format: biochemical
- conditions: Table III; n = number of times assayed, n=1 if not reported; read-out: p38 Alpha IC50
pIC50: −log10 of the molar value.
readoutType: pIC50

INSERT INTO results (chemicalstring, readouttype, measuredresult) VALUES
  ('Cc1cc(OCc2cccc(Cl)c2)c(Br)c(=O)n1Cc1ccccc1', 'pIC50', 5.80),
  ('COc1ccc(Cn2ccc(OCc3ccc(F)cc3)c(Br)c2=O)cc1', 'pIC50', 5.98),
  ('O=c1c(Br)c(OCc2ccccc2)ccn1Cc1ccc(C(F)(F)F)cc1', 'pIC50', 5.82);
